Quick list: TGI per entry.
Tested on: CCRF-CEM leukemia
test_details: NCI tumour cell line growth inhibition, 48 h
observation_type: TGI (µM)

compound	observation_type	limit_qualifier	experimental_value
O=C(/C=C/c1ccccc1Cl)c1ccc(Cl)cc1Cl	TGI	=	17.4
Clc1ncc(Cl)c(Cl)n1	TGI	>	100
C#CC(O)/C=C/C(O)CCCC(O)CC#CC(O)C#CC(O)CCCC(O)/C=C/CCCC(=O)CCCCCCCCCCCCCCCC(O)C(O)C#CC(=O)O (stereo unspecified)	TGI	=	36.3
Fc1ccc2[nH]cc(SSc3c[nH]c4ccc(F)cc34)c2c1	TGI	=	8.56
C/C(=N\N=C(N)N)C(CN(C)C)C(c1ccccc1)c1c(O)c2ccccc2oc1=O (stereo unspecified)	TGI	>	100
CC1(C)CC(Nc2ccc(Nc3ccccc3)cc2)CC(C)(C)N1	TGI	=	29.9
c1ccc(-c2cc(-c3cccs3)c(-c3cccs3)o2)cc1	TGI	>	100
CCOC(=O)C(C(=O)OCC)=C1NC2(c3ccccc3Nc3ccc(C)cc32)C(C(=O)OC)S1 (stereo unspecified)	TGI	>	100
CC/C=C/c1cc2cc[nH]c2c2c1C(C)C[C@@H]2C (stereo partly specified)	TGI	=	61.9
C=C1C(=O)OC2CC(C)C3C=CC(=O)C3CC12 (stereo unspecified)	TGI	=	5.14
Nc1ncnc2c1cnn2Cc1ccc(Cl)cc1	TGI	>	100
c1ccc(COC2(OCc3ccccc3)CC3OC2C2NN=NC32)cc1 (stereo unspecified)	TGI	=	33.1
CCCCCCCCCCCCCCCCCCOCC(COP(=O)([O-])OCC[N+](C)(C)C)OC (stereo unspecified)	TGI	=	28
CCC(C(=O)c1ccccc1)C(CCCC(=O)Nc1c(C)cccc1C)N=O (stereo unspecified)	TGI	>	100
O=C1CCS/C(=N\S(=O)(=O)c2ccc(N3N=C4c5ccccc5CC4C3c3cccs3)cc2)N1C(=O)c1ccccc1 (stereo unspecified)	TGI	=	42.7
Nc1ccc(Oc2ccc(C34CC5CC6C3CC3CC4C(C5)C6(c4ccc(Oc5ccc(N)c(O)c5)cc4)C3)cc2)cc1O	TGI	=	40.3
O=C1C(NCCN2CCOCC2)=C(Cl)C(=O)c2ncccc21	TGI	=	1.1
CC(NC(=O)C(N)CC(=O)O)NC(=O)N(C)C(C)(C)C (stereo unspecified)	TGI	>	100
Cc1c2c(cc3c(=O)ccn(CCN(C)C)c13)c(=O)ccn2CCN(C)C	TGI	=	27.9
O=C(c1ccc(Cl)cc1)c1ccc(OCCSCCCCCCCCCCSCCOc2ccc(C(=O)c3ccc(Cl)cc3)cc2)cc1	TGI	>	100
Oc1cccc(-c2cn3cc(C(F)(F)F)ccc3n2)c1	TGI	=	77.5
